System: Wolbachia pipientis
experiment.description: Anti-Wolbachia Cell-Based Screen
Type: functional
Parameters: scale not given: in the data most compounds retested in dose-response had high values
cond: 5 µM
Hit rate of the full screen: of about 48,000 compounds, about 13,000 (27%) showed an effect of 50% or more. The list shows a part of the results.
For each record, write down the corresponding Percent Effect.
One number for each entry, in %.

Sample answers from the record:
Ask: Item under review: CCCN1CCCC1c1ccc(C(=O)N2CCOCC2)s1 (centres undefined) . Reported Percent Effect?
Result: -8.147

Ask: Cc1cc(C[C@@H]2COC[C@@H]2NC(=O)CN2CCc3ccccc3C2)on1 , same question.
Result: -17.37

Ask: Please give the result for C[C@@H]1CN(C(=O)c2ccccc2F)C[C@]12CCN(CCN(C)C)C2=O too.
Result: 90.27

Ask: What do you get for CN1CCOC(CNCc2csc(C3CCCC3)n2)C1 (centres undefined) ?
Result: 96.75

Ask: Now give it for CCc1ccc(CN(C)C(=O)c2ccc(CSc3nnc[nH]3)o2)nc1 too.
Result: -27.23

Ask: Same question for O=S(=O)(NC[C@H]1OC[C@@H](NCc2cccs2)[C@@H]1O)c1ccccc1 please.
Result: -1.267

Ask: Another: Cc1cc(C)c(CNC(=O)N2CCCC2C(N)=O)c(=O)[nH]1 (centres undefined)
Result: 4.239

Ask: Same thing, different compound: Cc1cc(C2CCCN2C(=O)NCc2ccccn2)on1 (centres undefined)
Result: -32.12

Ask: Now the same for Cc1cc(C2CCCN2C(=O)NCc2cccnc2N(C)C)on1 (centres undefined)
Result: -7.167

Ask: Check Cc1cc(C)c(CNC(=O)N2CCCC2c2cc(C)on2)c(=O)[nH]1 (centres undefined) too.
Result: 104.6

Provide Percent Effect for all items below, preserving their order.
1. CNC(=O)[C@@H]1C[C@H](N)CN1S(=O)(=O)c1cc(Cl)c(Cl)s1
2. CN1CCCN(C(=O)c2cc3c(s2)CCN3C(=O)C2CC2)CC1
3. Cc1cc(C(=O)Nc2ccc(N3CCCC3)cn2)ccc1-n1cncn1
4. O=C1NCCN2CCN(Cc3ccc(Cl)c(Cl)c3)CC12 (centres undefined)
5. CC(C)COC(C)C(=O)N1CCN(S(C)(=O)=O)CC1 (centres undefined)
6. Cc1cc(C[C@@H]2COC[C@@H]2NC(=O)CN2CCCC2)on1
7. COCCN1CCO[C@@H]2CN(C(=O)Cc3ccc(F)cc3)CC[C@@H]2C1.O=C(O)C(F)(F)F

Result:
[-16.04, 2.998, -6.985, -5.038, -15.22, -5.725, 12.24]
